EXPERIMENT_SUMMARY: Solubility of metal salt ligands in nonanal with added solubilizing agent
Format: physicochemical
TEST_PARAMETERS: 25° C.; nonanal with 1:4 CARBOWAX TPEG-900/TERGITOL NP-9
Exercise: state measured Metal Salt Solubility for each of the compounds provided.
Answers are plain numbers, in Wt. %.

Recorded Metal Salt Solubility, per entry:
- COMPOUND: "O=S(=O)([O-])c1cccc(P(c2ccccc2)c2ccccc2)c1.[Na+]"
  Metal Salt Solubility [Wt. %]: 25
- COMPOUND: "O=S(=O)(O)c1cccc(P(c2ccccc2)c2ccccc2)c1 [TPPMS-Ba]"
  Metal Salt Solubility [Wt. %]: 33

Here's the next entry for you.
Prompt: Entry O=S(=O)(O)c1cccc(P(c2ccccc2)c2ccccc2)c1 [TPPMS-Rb] has what Metal Salt Solubility?
Response: 25

Data origin, for the record: patent US4731486A
